Where do the numbers come from? From ChEMBL document CHEMBL5506023.

assay_procedure: Observed clearance in Sprague-Dawley rat at 2.5 mg/kg,iv administration
Assay type: ADME, organism-based
settings: in vivo
property_measured: clearance (mL/min/kg)

>>> quantitative_readout("CC1=C(C(=O)OCC2CCCCC2)C(c2ccc(OC(F)F)c(OCC3CC3)c2)N(C(=O)SCc2ccccc2)C(=O)N1 (stereo unspecified)")
6.56

* * *

target_system: 3',5'-cyclic-AMP phosphodiesterase 4D (Homo sapiens)
Sequence (Q08499 whole entry): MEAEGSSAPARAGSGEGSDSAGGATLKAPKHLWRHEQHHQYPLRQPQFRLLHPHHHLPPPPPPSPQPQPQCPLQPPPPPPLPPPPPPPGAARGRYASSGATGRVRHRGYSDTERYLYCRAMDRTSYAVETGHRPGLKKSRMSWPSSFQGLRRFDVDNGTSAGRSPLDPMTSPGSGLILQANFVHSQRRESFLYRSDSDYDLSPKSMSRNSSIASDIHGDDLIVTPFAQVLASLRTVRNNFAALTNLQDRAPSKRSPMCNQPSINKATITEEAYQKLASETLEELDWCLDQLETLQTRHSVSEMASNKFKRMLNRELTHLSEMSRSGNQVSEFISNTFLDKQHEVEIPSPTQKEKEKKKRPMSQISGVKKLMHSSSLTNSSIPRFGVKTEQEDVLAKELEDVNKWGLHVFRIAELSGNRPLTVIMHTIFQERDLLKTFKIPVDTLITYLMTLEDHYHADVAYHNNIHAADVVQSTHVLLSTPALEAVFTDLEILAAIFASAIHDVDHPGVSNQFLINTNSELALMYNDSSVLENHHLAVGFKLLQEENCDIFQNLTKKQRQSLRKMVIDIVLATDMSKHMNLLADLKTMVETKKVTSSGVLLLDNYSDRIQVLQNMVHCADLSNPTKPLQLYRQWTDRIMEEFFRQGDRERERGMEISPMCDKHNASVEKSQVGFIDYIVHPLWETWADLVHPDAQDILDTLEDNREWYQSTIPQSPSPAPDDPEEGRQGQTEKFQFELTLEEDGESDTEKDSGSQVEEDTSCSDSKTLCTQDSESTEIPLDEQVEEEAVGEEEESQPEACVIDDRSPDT
property_measured: IC50 (µM)

>>> quantitative_readout("CC1=C(C(=O)OCC2CCCCC2)C(c2ccc(OC(F)F)c(OCC3CC3)c2)N(C(=O)SCc2ccccc2)C(=O)N1 (stereo unspecified)")
2.05

* * *

target_system: UniProt:P33261
Sequence (P33261 whole entry): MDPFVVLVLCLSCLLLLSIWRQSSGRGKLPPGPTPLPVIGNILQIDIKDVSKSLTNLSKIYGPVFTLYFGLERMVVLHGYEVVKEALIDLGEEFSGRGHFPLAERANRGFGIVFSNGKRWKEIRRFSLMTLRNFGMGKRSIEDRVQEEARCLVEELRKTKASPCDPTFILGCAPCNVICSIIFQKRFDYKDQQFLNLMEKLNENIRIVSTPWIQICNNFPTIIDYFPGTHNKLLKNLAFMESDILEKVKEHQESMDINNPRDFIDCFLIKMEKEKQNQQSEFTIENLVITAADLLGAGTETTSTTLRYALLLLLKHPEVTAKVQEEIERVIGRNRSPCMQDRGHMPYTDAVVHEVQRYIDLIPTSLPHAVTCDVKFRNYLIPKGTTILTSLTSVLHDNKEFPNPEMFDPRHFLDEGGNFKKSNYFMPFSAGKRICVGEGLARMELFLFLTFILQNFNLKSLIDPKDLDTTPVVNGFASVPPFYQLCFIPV
pIC50: −log10 of the molar value.
property_measured: pIC50

>>> result("CC1=C(C(=O)OCC2CCCCC2)C(c2ccc(OC(F)F)c(OCC3CC3)c2)N(C(=O)SCc2ccccc2)C(=O)N1 (stereo unspecified)")
"< 4.60"

* * *

assay_procedure: MRT in Sprague-Dawley rat at 2.5 mg/kg,iv administration
Type: ADME, organism-based
settings: in vivo
property_measured: MRT (h)

>>> quantitative_readout("CC1=C(C(=O)OCC2CCCCC2)C(c2ccc(OC(F)F)c(OCC3CC3)c2)N(C(=O)SCc2ccccc2)C(=O)N1 (stereo unspecified)")
1.77

* * *

target_system: UniProt:O00408
Sequence (O00408 whole entry): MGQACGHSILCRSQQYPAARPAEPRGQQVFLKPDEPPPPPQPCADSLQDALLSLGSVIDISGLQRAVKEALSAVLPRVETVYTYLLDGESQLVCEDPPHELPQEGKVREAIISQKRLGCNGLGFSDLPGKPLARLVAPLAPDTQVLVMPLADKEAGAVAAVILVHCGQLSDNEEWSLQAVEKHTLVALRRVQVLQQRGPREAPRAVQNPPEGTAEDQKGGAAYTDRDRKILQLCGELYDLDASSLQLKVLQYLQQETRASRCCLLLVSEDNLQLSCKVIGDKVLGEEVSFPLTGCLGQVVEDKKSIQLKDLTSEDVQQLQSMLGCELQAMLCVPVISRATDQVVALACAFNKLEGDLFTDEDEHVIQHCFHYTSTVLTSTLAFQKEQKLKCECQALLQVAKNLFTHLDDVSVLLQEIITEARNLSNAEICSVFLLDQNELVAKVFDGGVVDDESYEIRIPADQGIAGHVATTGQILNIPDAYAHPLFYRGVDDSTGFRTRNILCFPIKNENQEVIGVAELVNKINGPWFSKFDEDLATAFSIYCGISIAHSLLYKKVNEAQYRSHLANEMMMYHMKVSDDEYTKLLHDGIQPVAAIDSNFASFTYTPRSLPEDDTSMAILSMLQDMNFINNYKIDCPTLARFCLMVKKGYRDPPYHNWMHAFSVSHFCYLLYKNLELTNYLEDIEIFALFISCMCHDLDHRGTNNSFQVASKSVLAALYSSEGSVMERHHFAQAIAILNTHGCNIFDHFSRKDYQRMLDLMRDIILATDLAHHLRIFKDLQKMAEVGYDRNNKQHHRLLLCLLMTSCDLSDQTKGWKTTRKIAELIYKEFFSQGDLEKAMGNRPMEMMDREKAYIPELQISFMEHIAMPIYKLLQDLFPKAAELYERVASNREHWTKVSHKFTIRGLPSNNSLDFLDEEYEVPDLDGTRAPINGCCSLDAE
property_measured: IC50 (µM)

>>> quantitative_readout("CC1=C(C(=O)OCC2CCCCC2)C(c2ccc(OC(F)F)c(OCC3CC3)c2)N(C(=O)SCc2ccccc2)C(=O)N1 (stereo unspecified)")
3.54

* * *

assay_procedure: AUC (0 to infinity) in Sprague-Dawley rat at 2.5 mg/kg,iv administration
Assay type: ADME, organism-based
settings: in vivo
property_measured: AUC(0-inf)

>>> result("CC1=C(C(=O)OCC2CCCCC2)C(c2ccc(OC(F)F)c(OCC3CC3)c2)N(C(=O)SCc2ccccc2)C(=O)N1 (stereo unspecified)")
"6320 ng·h/mL"
